- System: PANC-1
- measurementProtocol: SRB colorimetric cell growth inhibition assay, PANC-1
- Assay type: cell-based
- particulars: Homo sapiens, PANC-1, PANC-1; GI=growth inhibition; read-out: GI50 PANC-1
- Protocol: The finality of these assays is to interrupt the growth of an “in vitro” tumor cell culture by means a continued exhibition of the cells to the sample to be testing. A colorimetric type of assay, using sulforhodamine B (SRB) reaction has been adapted for a quantitative measurement of cell growth and viability (following the technique described by P. A. Skehan, et al., J. Natl. Cancer Inst. 1990, 82, 1107-1112). […] The values for mean +/− SD of data from triplicate wells are calculated. […]
measuredParameter: log10 of GI50 (log10 of the value in nM)
Please interpret these as log10 of GI50 where GI50 is in nM.

Consider COc1cc(-c2c3c4cc(OC)c(OC(=O)CCc5ccccc5)cc4oc(=O)c3n3ccc4cc(OC(=O)CCc5ccccc5)c(OC)cc4c23)ccc1OC(=O)CCc1ccccc1 . Its measured log10 of GI50 is 2.36

Consider CCCCCCCC(=O)Oc1ccc(-c2c3n(c4c(=O)oc5cc(OC(=O)CCCCCCC)c(OC)cc5c24)CCc2cc(OC(=O)CCCCCCC)c(OC)cc2-3)cc1OC . Its measured log10 of GI50 is 3.28

Consider COc1cc(-c2c3n(c4c(=O)[nH]c5cc(O)c(OC)cc5c24)CCc2cc(O)c(OC)cc2-3)ccc1O . Its measured log10 of GI50 is 2.68

Consider COc1cc2c(cc1O)CCn1c-2cc2c3cc(OC)c(O)cc3oc(=O)c21 . Its measured log10 of GI50 is 2.98

Consider COc1cc2c(cc1O)CCn1c-2c(Br)c2c3cc(OC)c(O)cc3oc(=O)c21 . Its measured log10 of GI50 is 3.75

Consider COc1cc2c(cc1OC)-c1c(-c3ccc(OC(=O)[C@H](Cc4ccccc4)NC(=O)OC(C)(C)C)c(OC)c3)c3c4cc(OC)c(OC(=O)[C@H](Cc5ccccc5)NC(=O)OC(C)(C)C)cc4oc(=O)c3n1CC2 . Its measured log10 of GI50 is 2.70

Reference source: patent US7396837B2
